# viability at 24 h, 25 ug/ml annotations
test: Cytotoxicity against mouse RAW264.7 cells assessed as cell survival at 25 ug/ml incubated for 24 hrs by CCK8 assay relative to control; type: toxicity, cell-based; details: at 25 µg/mL, read-out: Activity
measured.parameter: viability at 24 h, 25 ug/ml

compound_structure_string=COc1ccccc1NC(=O)c1ccc2[nH]c3c4[n+](ccc3c2c1)-c1ccccc1C4=O.[Br-] result=12.8%
compound_structure_string=Cc1cccc(NC(=O)c2ccc3[nH]c4c5[n+](ccc4c3c2)-c2ccccc2C5=O)c1.[Br-] result=106%
compound_structure_string=CCCCCCCCNC(=O)c1ccc2[nH]c3c4[n+](ccc3c2c1)-c1ccccc1C4=O.[Br-] result=84.1%
compound_structure_string=CC(C)c1cccc(NC(=O)c2ccc3[nH]c4c5[n+](ccc4c3c2)-c2ccccc2C5=O)c1.[Br-] result=100%
